GI50: recorded values
- Tested on: SK-MEL-28
- Protocol text: NCI tumour cell line growth inhibition, 48 h
Active and inactive are the calls of the source. Cut-off read from the data, not from the text of the source: active = GI50 up to about 1.1 µM and inactive = higher.
Reported property: GI50

Compound	Assay system	Reported property	Recorded result
COc1ccc(/C=C(\Cl)c2ccc(OC)cc2)cc1	SK-MEL-28	GI50	> 100 µM (inactive)
Nc1ccc(S(=O)(=O)NCCS(=O)(=O)O)cc1	SK-MEL-28	GI50	> 100 µM (inactive)
O=C(O)C1CCCN1C(=O)c1cc(Cl)ccn1 (stereo not given)	SK-MEL-28	GI50	> 100 µM (inactive)
C1CCN(c2nsc(N3CCCCC3)n2)CC1	SK-MEL-28	GI50	> 100 µM (inactive)
Cc1c(C)c(C)c(Cn2[nH]c(=O)n(C)c2=O)c(C)c1C	SK-MEL-28	GI50	> 100 µM (inactive)
C[C@@]1(O)C2C3CC4C5C3C1[C@](O)(C42)[C@H]5Br (stereo not given in full)	SK-MEL-28	GI50	> 100 µM (inactive)
COc1ccc(NC(=O)/C(=N/NC(N)=S)C2C(=O)NC(=S)NC2=O)c(OC)c1	SK-MEL-28	GI50	> 100 µM (inactive)
C[C@@]1(Br)C[C@@](C)(Cl)[C@@H](Br)CC1/C=C/Cl (stereo not given in full)	SK-MEL-28	GI50	21.9 µM (inactive)
CC1=CC(=O)CCC2(C)C1CC[C@@H]2OC=O (stereo not given in full)	SK-MEL-28	GI50	> 100 µM (inactive)
O=C(C[N+]1(c2ccccc2)CCOCC1)c1ccccc1	SK-MEL-28	GI50	0.0445 µM (active)
